// provenance: patent US20150158934A1

Molecular target: T1, CA018 gp140/420 (A/G) (HIV-1)
T1 construct: also called gp120 of CA18
Assay: SPR
Can you tell me koff for the items I'm about to list?
Numbers only, in s⁻¹.

Examples from the recorded data:
L91H9 (VHH, Purified by IMAC; tags not written into the chain) VHH: EVQLVESGGGLVQAGGSLRLSCAVSGATFDDYAIGWFRQAPGKEREGVSYIGCNDGSTYYAGSVKGRFTISCDYAKNTVYLQMNSLKPEDTAVYYCAAAAQWATIRWIHEYDYDTWGQGTQVTVSS	0.428
L8Cj3 (VHH, 207 chosen because J3r is said to carry S82aN against L8Cj3; also called L8CjJ3; L9Cj3) VHH: EVQLVESGGGLVQAGGFLRLSCELRGSIFNQYAMAWFRQAPGKEREFVAGMGAVPHYGEFVKGRFTISRDNAKSTVYLQMSSLKPEDTAIYFCARSKSTYISYNSNGYDYWGRGTQVTVSS	3.98e-05

For each entry beneath this line, provide reported koff.
1. L91F10 (VHH, Purified by IMAC; tags not written into the chain) VHH: EVQLVESGGGLVQPGGSLTLSCVASGFTLDGYAIGWFRQAPGKEVESVSCITGRHGTIYYADSVMGRFTISRDNAKSTVYLQMNSLKPEDTAVYYCAADGFDTPCVAGTDWQYDYWGQGTQVTVSS
2. L82B4F (VHH, Family member of L81H9; tags not written into the chain) VHH: EVQLVESGGGLVQAGGSLRLSCAASGFTSDDYAIGWFRRAPGKEREGVSYISIEDGSTYSADSVKGRFTISSDYAKNTVYLQMNGLKPEDTAVYYCAAAILGDSVRWLQEYDYDYWGQGTQVTVSS
3. L92E7 (VHH, Purified by IMAC; tags not written into the chain) VHH: EVQLVESGGGLVQPGGSLRLSCAASGNIVSIDAAGWFRQAPGKQREPVATILTGGATNYADSVKGRFTISRDNAKNTVYLQMSSLKPEDTAVYYCYAPMIYYGGRYSDYWGQGTQVTVSS

Result:
6.94e-05
0.00298
0.00013
